Molecular target: GLP-1R on Tag-Lite Glucagon GLP-1 labeled cells
Sequence (P43220 24-463): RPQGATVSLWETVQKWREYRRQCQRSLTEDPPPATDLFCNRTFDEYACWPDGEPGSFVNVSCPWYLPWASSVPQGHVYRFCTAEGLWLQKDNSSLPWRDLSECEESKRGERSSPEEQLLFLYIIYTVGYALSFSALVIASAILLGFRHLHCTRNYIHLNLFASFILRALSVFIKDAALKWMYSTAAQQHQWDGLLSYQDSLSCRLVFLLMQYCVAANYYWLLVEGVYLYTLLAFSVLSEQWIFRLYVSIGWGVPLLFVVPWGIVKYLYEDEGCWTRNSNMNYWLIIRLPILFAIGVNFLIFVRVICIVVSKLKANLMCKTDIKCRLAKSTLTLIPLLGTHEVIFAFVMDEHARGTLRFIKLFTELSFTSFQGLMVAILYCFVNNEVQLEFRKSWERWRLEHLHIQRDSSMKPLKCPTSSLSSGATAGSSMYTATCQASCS
Experiment: Tag-Lite GLP-1R binding FRET competition assay on cells, absence of HSA; competitor: red agonist
Starred links: 1 amine or outer side, 2 acyl side, 3 side chain; linkers in the order of their positions; H or OH if unused. Non-standard residues stand in square brackets, D forms with d. Groups on a side chain read outwards from the residue. No end group written: not given here. *: point of attachment. (CH2)18‑OH = polymethylene chain of 18 CH2 units ending in OH (m = 18), OCCCCCCCCCCCCCCCCCC*; γGlu = O=C(O)[C@H](CCC(=O)[*:2])N[*:1]; Dap = NC[C@H](N)C(=O)O; AEEA = NCCOCCOCC(=O)O; Aib = CC(C)(N)C(=O)O
Criterion: IC50 strictly less than 2000 nM. Met: rule met. Not met: rule not met.

[
  {
    "binder": "Y[Aib]EGTFTSDVSS[Aib]LEGQAAK([AEEA-AEEA-γGlu-(CH2)18‑OH])EFIAWLVRGRG [APi3709]",
    "assigned_class": "rule not met"
  },
  {
    "binder": "HXEGTFTSDVSSXLEGQAAKEFIAWLVRGRG (GLP-1 numbering (first residue is Xaa7): Aib-ψ[CH2NH] at Xaa8 (reduced peptide bond between Aib and the next residue); Aib at Xaa19; ε-amino group of Lys26 substituted with AEEA-AEEA-γ-Glu-(CH2)m-OH, m is 18) [APi3710]",
    "assigned_class": "rule not met"
  },
  {
    "binder": "H[Aib]EGTFTSDVSSY[Aib]EGQAAK([AEEA-AEEA-γGlu-(CH2)18‑OH])EFIAWLVGGPSSGAPPPS-NH2 [APi3713]",
    "assigned_class": "rule met"
  },
  {
    "binder": "H[Aib]EGTFTSDVSS[Aib]LEGQAAK([AEEA-AEEA-γGlu-(CH2)18‑OH])EFIAWLVRG[Dap]G [APi3712]",
    "assigned_class": "rule met"
  },
  {
    "binder": "HXEGTFTSDVSSXLEGQAAKEFIAWLVRGRG (GLP-1 numbering (first residue is Xaa7): Aib at Xaa8 and Xaa19; ε-amino group of Lys26 substituted with AEEA-AEEA-γ-Glu-(CH2)m-OH, m is 18) [APi3711]",
    "assigned_class": "rule met"
  }
]

All figures here come from patent US20250074964A1.
